The measured values listed here are drawn from paper PMC8742637.

# Type: in vivo, human
# condition-summary: human, plasma, oral, 10 mg
observation-type: half-life

input: Could you tell me which half-life is on file for CCOC(=O)[C@H](CCc1ccccc1)N[C@@H](C)C(=O)N1[C@H](C(=O)O)C[C@@H]2CCC[C@@H]21 [RAMI, ramipril] ?
output: 2.17 to 2.32 h

###

# Type: in vivo
# condition-summary: human, plasma, oral, 5 mg
observation-type: half-life

input: Could you tell me which half-life is on file for CCOC(=O)[C@H](CCc1ccccc1)N[C@@H](C)C(=O)N1[C@H](C(=O)O)C[C@@H]2CCC[C@@H]21 [RAMI, ramipril] ?
output: 1.39 to 1.68 h
